Entries annotated with measured melting point

Some entries whose results are on file:
                                   compound         result
0  O=c1c(-c2ccccc2)c(Cn2cnc3c(Cl)ncnc32)oc2ccc(Br)cc12  234 to 236 °C
1  CC(c1oc2ccccc2c(=O)c1-c1ccccc1)n1nc(-c2ccc3cn[nH]c3c2)c2c(N)ncnc21 (centres unmarked)  176 to 178 °C
2  CCOc1ccc2cc(-c3nn(C(C)c4oc5ccccc5c(=O)c4-c4cccc(F)c4)c4ncnc(N)c34)ccc2c1 (centres unmarked)  286 to 290 °C
3  CC(c1oc2ccccc2c(=O)c1-c1cccc(F)c1)n1ccc2ncnc(Cl)c21 (centres unmarked)  166 to 168 °C
4  CC(c1oc2ccccc2c(=O)c1-c1cccc(F)c1)n1nc(-c2ccc3c(c2)OCCCO3)c2c(N)ncnc21 (centres unmarked)  234 to 237 °C
5  CC(c1oc2ccc(Br)cc2c(=O)c1-c1ccccc1)n1ncc2c(N)ncnc21 (centres unmarked)  239 to 240 °C

For record Cc1c[nH]c2ccc(-c3nn(C(C)c4oc5ccccc5c(=O)c4-c4cccc(F)c4)c4ncnc(N)c34)cc12 (centres unmarked) the listed melting point is 171 to 173 °C
